The reported measurements were obtained from paper PMC8502122.

# method-description: pKa values and ionic form at pH 7
# Assay type: physicochemical
readout-label: Ionic form at pH 7

chemical_smiles=O=c1[nH]cnc2c([C@@H]3O[C@H](CO)[C@@H](O)[C@H]3O)n[nH]c12 readout_label="Ionic form at pH 7" measured=Neutral
chemical_smiles=Nc1ncnc2c([C@@H]3O[C@H](CO)[C@@H](O)[C@H]3O)n[nH]c12 readout_label="Ionic form at pH 7" measured=Neutral
chemical_smiles=Cc1ncc([N+](=O)[O-])n1CCO readout_label="Ionic form at pH 7" measured=Neutral
chemical_smiles=O=CN(O)CC(=O)O readout_label="Ionic form at pH 7" measured=Anion
